system: HOP-62 NSCLC; assay: NCI tumour cell line growth inhibition, 48 h; in the data active = GI50 below about 0.43 µM; inactive = the rest
// classify into active, inactive

Q) Could you please tell me the result logged for O=S(=O)(CCCl)c1ccc(Cl)cc1 in this assay?
A) inactive

---

This section presents molecules with their documented TGI values.
tested on: KM20L2 colon; test: NCI tumour cell line growth inhibition, 48 h

                                   molecule     result
0        CN(C)C(=S)/N=c1\ssc(=S)n1Cc1ccncc1   > 100 µM
1               CSC(=S)N/N=C/c1nccc2ccccc12  > 27.6 µM
2            O=C(N/N=C/c1cccc(F)c1)c1ccncc1   > 100 µM
3  C[N+](C)(C)CC1CCCCC1O (stereo unspecified)   > 100 µM
4  Cc1cc(N(CCC#N)CCC#N)ccc1/C=C(\NC(=O)/C=C/c1ccccc1)C(=O)NN   > 100 µM

Consider the record given below.
What the record says about CCOC(=O)c1cc2c3c(c(O)c(OC)c2s1)N(C(=O)c1cc2c4c(c(O)c(OC)c2s1)N(C(C)=O)CC4)CC3 : TGI is > 100 µM

Every entry's value here was drawn from PubChem BioAssay (NCI).
